// provenance: the supplement of paper PMC7125110

B1: glmS ribozyme (parent)
chain: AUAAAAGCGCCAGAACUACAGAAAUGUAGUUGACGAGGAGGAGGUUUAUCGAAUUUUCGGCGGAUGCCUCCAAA

variants of: B1; assay: self-cleavage kobs at 2500 uM GlcN6P; higher = faster cleavage; RNA array; conditions: with glucosamine-6-phosphate
This sample holds only a part of the variants without activity.
The entries below come with measured self-cleavage kobs at 2500 uM GlcN6P values attached.
Field: numeric (s⁻¹). Do not append units.

Recorded results for 5 variants are shown here.
- G43A C68U: 0.00869
- G29A U30C: 4.91e-05
- A14U U65C: 9.87e-05
- A15G C16G U46G: 0.000248
- C67A C71G: 8.16e-05

Exam item: Which self-cleavage kobs at 2500 uM GlcN6P value is on record for A12G U55C ?
Marked response: 0.000461

Exam item: Ok, now C16G U46G
Marked response: 0.000703

Exam item: Then what about the variant A12C U31A ?
Marked response: 0.00434

Exam item: Moving on to the next variant: A12C C70A
Marked response: 0.000174

Exam item: Try this variant too: C16A U56A
Marked response: 0.000618

Exam item: Again, but for G44A U55A
Marked response: 0.000286

Exam item: Also check A15G U31G U47G
Marked response: 0.000803

Exam item: Another variant to look at: G40C A42G A53C
Marked response: 0.000564

Exam item: Now consider C50G A64C .
Marked response: 6.53e-05

Exam item: Request: A42C A64U U69G
Marked response: 9.13e-05

Exam item: What about U30C U31G C50G C70G ?
Marked response: 0.00026
